# experimental-system: OXE receptor (Homo sapiens, UniProt Q8TDS5)
# Construct: Human granulocytes (≥95% neutrophils) are prepared from whole blood; endogenous in cells; host or cells: human granulocytes (≥95% neutrophils) from whole blood
# Sequence (Q8TDS5 whole entry): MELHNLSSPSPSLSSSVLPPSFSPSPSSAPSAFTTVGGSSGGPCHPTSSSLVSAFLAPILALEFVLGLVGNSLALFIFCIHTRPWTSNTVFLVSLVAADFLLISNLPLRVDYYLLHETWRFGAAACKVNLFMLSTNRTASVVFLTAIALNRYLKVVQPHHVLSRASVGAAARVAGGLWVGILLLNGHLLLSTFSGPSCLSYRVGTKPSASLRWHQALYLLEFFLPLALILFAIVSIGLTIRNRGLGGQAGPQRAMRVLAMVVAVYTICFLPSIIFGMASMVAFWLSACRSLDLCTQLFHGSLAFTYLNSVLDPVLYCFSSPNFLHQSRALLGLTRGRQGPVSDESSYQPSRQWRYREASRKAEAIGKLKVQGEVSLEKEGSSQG
# assay-comment: Calcium mobilization in human granulocytes (inhibition of 5-oxo-ETE-induced calcium mobilization)
# Type: cell-based
# condition-parameters: inhibition of calcium mobilization induced by 5-oxo-ETE (10 nM) in human granulocytes; bracketed figure in cell = n; read-out: IC50
# Experimental: Evaluation of Antagonist Activity: Calcium Mobilization in Human Granulocytes Human granulocytes (≥95% neutrophils) are prepared from whole blood using Dextran 500 to remove red blood cells, followed by centrifugation over Ficoll-Paque to remove mononuclear cells and hypotonic lysis of any remaining red blood cells. […] Following stabilization of the baseline, fluorescence is measured for 1 min, prior to the addition of either vehicle or various concentrations of a potential 5-oxo-ETE antagonist. […]
test-readout: IC50 (nM)

- compound: "COc1ccccc1CCCCCCc1c(C(=O)C[C@@H](C)CC(=O)O)c2cc(Cl)ccc2n1C (single isomer, unassigned) [Compound 64]"
  IC50 (nM): 54
- compound: "CC(CC(=O)O)CC(=O)c1c(/C=C/CCCCc2ccccc2)n(C)c2ccc(Cl)cc12 (stereo not shown) [Compound 85]"
  IC50 (nM): 1.93
- compound: "C[C@H](CC(=O)O)CC(=O)c1c(CCCC/C=C\\c2ccccc2)n(C)c2ccc(Cl)cc12 [Compound 95]"
  IC50 (nM): 0.62

(1) COc1ccccc1CCCCCC(O)c1c(C(=O)C[C@H](C)CC(=O)O)c2cc(Cl)ccc2n1C (stereo partly shown) [Compound 49M]
(2) C[C@@H](CC(=O)O)CC(=O)c1c(CCCCCCc2cccc(F)c2)n(C)c2ccc(Cl)cc12 (single isomer, unassigned) [Compound 66]
(3) C[C@H](CC(=O)O)CC(=O)c1c(C(O)CCCCCc2cccc(Cl)c2)n(C)c2ccc(Cl)cc12 (stereo partly shown) [Compound 50M]
(4) CC(CC(=O)O)CC(=O)c1c(CCCCCCO)n(C)c2ccc(Cl)cc12 (stereo not shown) [V230 ω-OH, reference compound]
Hey, quick one: sort these by IC50, low to high? Order the labels as requested and list them.
3, 1, 2, 4
(3: 0.08 nM, 1: 0.58 nM, 2: 1.8 nM, 4: 260 nM)
